TEST NAME: qHTS assay to identify small molecule antagonists of the retinoid acid receptor (RAR) signaling pathway - cell viability counter screen (AID 1159551); further: nearly all actives have a fitted effect of over 35% in size
RUN PARAMETERS: C3RL4 cells viability, ATP luminescence (CellTiter-Glo), 6 h; series mostly up to 92.4 µM
Experimental: U.S. Tox21 Program National Center for Advancing Translational Sciences [NCATS] NIH Chemical Genomics Center [NCGC] U.S. Environmental Protection Agency [EPA] National Institutes of Environmental Health Sciences [NIEHS] National Toxicology Program [NTP] U.S. Food and Drug Administration [FDA] […] Also cytotoxicity was assessed by determining the viability of cells based on the quantitation of ATP. […]
Records with an inconclusive call do not appear. Active and inactive are the calls of the source. The call rests on the fitted dose curve; in most records, active means well fitted cell-killing curve with a large enough effect in the repeat runs; inconclusive means weak or mixed curves, or effect the other way; inactive means flat fitted curve, though single readings scatter.
Please answer using one outcome listed in y (active), n (inactive)

[
  {
    "COMPOUND": "CCOC(=O)COc1ccc(C)cc1",
    "ASSIGNED CATEGORY": "n"
  },
  {
    "COMPOUND": "CCCC(=O)OCC(COC(=O)CCC)OC(=O)CCC",
    "ASSIGNED CATEGORY": "n"
  },
  {
    "COMPOUND": "CC(=O)OC1CCCCC1",
    "ASSIGNED CATEGORY": "n"
  }
]

Per the assay record, what outcome was assigned to `Oc1cc2ccccc2cc1O` ?
n

Assay result, entry `Cc1cc(C)c(C=O)c(C)c1` — outcome?
n

Hello, I am checking results. What call was entered for `CCc1c(Br)c(Br)c(Br)c(Br)c1Br` ?
n

Would you mind telling me which call this test gave `CCc1c(C(=O)O)c(=O)cnn1-c1ccc(Cl)cc1` ?
n

Outcome logged for `O=C(c1ccccc1)c1cc(Cl)ccc1O` in this assay:
n

What call does the record list for `CNC(=O)c1cc(Oc2ccc(NC(=O)Nc3ccc(Cl)c(C(F)(F)F)c3)cc2)ccn1` ?
n

Record lookup: outcome of this test for `Cc1c(C)n(Cc2ccccc2)c2ccc(C(=O)OCCN(C)C)cc12` ?
n

Every entry's value here was drawn from PubChem BioAssay (Tox21).
